Test system: MDA-MB-231 breast
Assay: NCI tumour cell line growth inhibition, 48 h
Measured TGI of individual entries
Express the result in µM but write the number alone.

compound: COc1ccc(-c2nc(N)c(C#N)c3c2CCOc2c-3ccc3ccccc23)cc1
TGI [µM]: 33.8

compound: O=C1NC(=Nc2ccccc2)C(=Nc2ccccc2)N1c1ccccc1
TGI [µM]: 35.6

compound: NCCOc1ncccc1/C=C1\c2ccccc2-c2ccc([N+](=O)[O-])cc21
TGI [µM]: 0.613

Returns the measured TGI for the input compound. Input: COc1ccccc1C1C(C#N)=C(N)Oc2cc(O)ccc21 (stereo not given)
24.8

====

Tested on: DMS 273 small cell lung
Assay: NCI tumour cell line growth inhibition, 48 h
Measured TGI of individual entries

Worked examples, 5 molecules total:
molecule: N#C/C(=C\c1ccccc1)C(NO)Nc1ccccc1 (stereo unspecified)
tgt: DMS 273 small cell lung
TGI: > 100 µM

molecule: Cc1ccc(C2C(Cl)C(=O)N2NC(=O)c2ccc(N)cc2)cc1 (stereo unspecified)
tgt: DMS 273 small cell lung
TGI: 17.4 µM

molecule: CCC(=O)C(C(=O)CC)c1c(OC(=O)c2ccccc2)ccc(O)c1C(=O)OC
tgt: DMS 273 small cell lung
TGI: > 100 µM

molecule: C/C(O)=C(\N=O)C(=O)NCc1ccccc1
tgt: DMS 273 small cell lung
TGI: > 100 µM

molecule: O=C1C=C(Nc2ccc(S(=O)(=O)Nc3ncccn3)cc2)c2ccccc2C1=O
tgt: DMS 273 small cell lung
TGI: 68.8 µM

Field: TGI (DMS 273 small cell lung). Entry: `O=C(c1ccco1)N(C(=S)N1CCN(c2ccccn2)CC1)c1ccccc1`
> 100 µM

====

Measured TGI of individual entries
Tested on: SNB-19 CNS
Experiment: NCI tumour cell line growth inhibition, 48 h

Worked examples, 5 molecules total:
molecule: Cc1cn2c(/C=N/N=C(N)N)c(-c3ccncc3)nc2s1
property.name: TGI
recorded.value: 31.3 µM
//
molecule: O=C(CN(/C=C/C(=O)C(F)(F)F)c1ccccc1)c1ccc(Cl)cc1
property.name: TGI
recorded.value: 51.5 µM
//
molecule: CN(C)c1ccc(/C=C(\NC(=O)c2ccccc2)C(=O)NC(Cc2c[nH]c3ccccc23)C(=O)O)cc1 (stereo not given)
property.name: TGI
recorded.value: > 100 µM
//
molecule: N#Cc1c(-c2ccccc2)cc(Nc2ccc(Cl)cc2)n2c1nc1ccccc12
property.name: TGI
recorded.value: > 100 µM
//
molecule: CC[C@@H](O)C[C@H]1CCC[C@@]2(C[C@@H]3OC(=O)/C=C/[C@@](C)(O)[C@@H](O)[C@H](C)[C@@H](O)[C@H](OC4CCC(N(C)C)C(C)O4)[C@@H](O)[C@](C)(O)CCCCC/C=C/[C@@H]4CC(C)(C)O[C@@]4(O)C[C@H](O2)[C@H]3C)O1 (stereo not given in full)
property.name: TGI
recorded.value: 20.6 µM

Note: attention shifts to another entry.
Returns the measured TGI for the input molecule. Input: `COc1cccc2nc3c(C(=O)NCCN(C)C)cccc3nc12`
> 91.8 µM

====

Test system: OVCAR-4 ovarian
Experiment: NCI tumour cell line growth inhibition, 48 h
Measured TGI of individual entries

Worked examples, 6 compounds total:
compound: Cc1cc2c(cc1CO)N1Cc3cc(C)c(CO)cc3N(C2)C1
TGI: > 100 µM
//
compound: Cc1noc(C)c1-c1cnc2c(-c3ccc(C(=O)O)cc3)cn([C@@H](C)c3ccccn3)c2c1
TGI: > 100 µM
//
compound: O=C(NCc1ccc2ccc3cccnc3c2n1)c1ccc[n+](Cc2ccccc2)c1
TGI: > 100 µM
//
compound: O=C(Nc1ccc2cc3ccccc3cc2c1)c1cc2c(cc1Cl)Sc1nccn1S2(=O)=O
TGI: > 100 µM
//
compound: CC(C)=C[C@@H]1O[C@H](O)[C@@H]([C@H]2CC[C@@]3(C)[C@@H]4CC[C@H]5C(C)(C)C(=O)CC[C@@]56C[C@@]46CC[C@]23C)[C@@H]1O
TGI: 35 µM
//
compound: CC(=O)c1c(O)n(-c2ccc(C)cc2)c(=O)c2c(N)n[nH]c12
TGI: > 100 µM

Returns the measured TGI for the input compound. Input: `COc1cc2nc(-c3cccc4cccnc34)nc(NC3CCN(Cc4ccccc4)CC3)c2cc1OC`
2.71 µM

Returns the measured TGI for the input compound. Input: `[N-]=[N+]=Nc1ccc2c(c1)Sc1ccccc1N2CCCCN1CCN(C(=O)CCNC(=O)Cc2ccc(C(=O)c3ccccc3)cc2)CC1`
> 25.6 µM

Returns the measured TGI for the input compound. Input: `NC(N)=N/N=C/c1c(-c2cc([N+](=O)[O-])c(Cl)cc2Cl)nc2n1CCS2`
33.9 µM

Returns the measured TGI for the input compound. Input: `COC(=O)[C@H](Cc1c[nH]c2ccccc12)NC(=O)c1ccccc1I`
> 100 µM

Returns the measured TGI for the input compound. Input: `C=CC[C@]1(C2=NC(C)(C)CO2)c2ccccc2-c2ccccc2[C@H]1C(C)=O`
> 69 µM

====

Measured GI50 of individual entries
System: A498 renal
Assay: NCI tumour cell line growth inhibition, 48 h

molecule: COc1cccc(NC(=O)c2sc3nc4c(cc3c2N)C(O)CCC4)c1 (stereo not given)
GI50: 112 nM
//
molecule: CCC[CH2][Sn]([CH2]CCC)([CH2]CCC)[O]C(=O)C(OC)c1ccccc1 (stereo not given)
GI50: 123 nM
//
molecule: Oc1c(O)c(Cl)c(Cl)c(Cl)c1Cl
GI50: 2670 nM

Returns the measured GI50 for the input molecule. Input: `O=C([CH-]C(=O)c1ccccc1)c1ccccc1.O=C([CH-]C(=O)c1ccccc1)c1ccccc1.O=C([CH-]C(=O)c1ccccc1)c1ccccc1.[Cl-].[Zr+4]`
18700 nM

Returns the measured GI50 for the input molecule. Input: COc1ccccc1C1C(C#N)=C(N)Oc2cc(O)ccc21 (stereo not given)
36800 nM

Returns the measured GI50 for the input molecule. Input: `O=C(O)Cn1ccc2ccccc21`
> 100000 nM

Returns the measured GI50 for the input molecule. Input: `COc1cc(Nc2ncnc(Nc3ccc4c(n3)NC(=O)C(C)(C)O4)n2)cc(OC)c1OC`
31 nM

Returns the measured GI50 for the input molecule. Input: `Cn1cc(C2=C(c3ccccc3C(F)(F)F)C(=O)NC2=O)c2ccccc21`
3900 nM

Returns the measured GI50 for the input molecule. Input: COc1cc(NC(C)CCCNC(C)C)c2ncccc2c1OC (stereo not given)
416 nM

Returns the measured GI50 for the input molecule. Input: O=C(Oc1ccccc1)C(Br)C(Br)c1ccccc1 (stereo not given)
10500 nM

====

Test system: MDA-MB-435
Assay: NCI tumour cell line growth inhibition, 48 h
Returns t if the recorded TGI is greater than or equal to 0.7 µM, and f otherwise.

compound: COc1cc(NC(C)CCCNC(C)C)c2ncccc2c1OC (stereo not given)
class.assignment: t
//
compound: CN(C)c1ccc(/C=C(\NC(=O)c2ccccc2)C(=O)NC(Cc2c[nH]c3ccccc23)C(=O)O)cc1 (stereo not given)
class.assignment: t
//
compound: CC12OC(C(=O)C13CCC3)C1C(=O)c3ccc4c(ccc5ccccc54)c3C(=O)C12 (stereo not given)
class.assignment: t

Could you now look at the following compound, please?
Tell me whether TGI is at least 0.7 µM here: `CCNC(=S)NNC(=O)CSc1nc2ccc(I)cc2c(=O)n1Cc1ccccc1`
t

====

Tested on: HS 578T breast
Experiment: NCI tumour cell line growth inhibition, 48 h; in the data active means GI50 below about 0.43 µM; inactive means the rest
Your answer must be one of the following: class 1 for active, class 0 for inactive

Observe how each entry below is paired with its result.
compound: O=C(O)Cn1ccc2ccccc21
class.assignment: class 0
--
compound: Nc1nc2c(ccc3ccccc32)s1
class.assignment: class 0
--
compound: O=C(Oc1ccccc1)C(Br)C(Br)c1ccccc1 (stereo unspecified)
class.assignment: class 0
--
compound: CC/C(Cc1ccccc1)=C(/c1ccc(O)cc1)c1ccc(OCCN2CCCC2)cc1
class.assignment: class 0
--
compound: COc1ccc(-c2n[nH]nc2-c2cc(OC)c3c(c2)OCO3)cc1
class.assignment: class 1

Give the logged outcome of this assay for the following compound: `Cc1ccc(O)c(NC2=C(Cl)C(=O)N(Cc3ccccc3)C2=O)c1`
class 0

Give the logged outcome of this assay for the following compound: `O=C(/C=C\n1cnc(-c2cc(C(F)(F)F)cc(C(F)(F)F)c2)n1)N1CC(F)(F)C1`
class 1

Give the logged outcome of this assay for the following compound: `CCc1nn2ncccc2c1-c1ccnc(NC2CC2)n1`
class 0

====

Test system: RXF-631 renal
Assay: NCI tumour cell line growth inhibition, 48 h
Measured TGI of individual entries

Worked examples, 3 compounds total:
compound: O=C(NC(=O)c1cn(CCN2CCN(C(=O)NCCCCCCNC(=O)N3CCN(CCn4cc(C(=O)NC(=O)OCc5ccccc5)c(=O)[nH]c4=O)CC3)CC2)c(=O)[nH]c1=O)OCc1ccccc1
TGI: > 100 µM

compound: O=C1C=C(Nc2ccc(S(=O)(=O)Nc3ncccn3)cc2)c2ccccc2C1=O
TGI: 47.3 µM

compound: COc1ccc2c(c1)[n+](=O)c(C(=O)CC(=O)C(=O)Nc1cccc(C)c1C)c(C)n2[O-]
TGI: > 100 µM

Note: attention shifts to another entry.
Returns the measured TGI for the input compound. Input: CCC(C)(O)c1cn(-c2ccc(S(=O)(=O)O)cc2)nn1 (centres undefined)
> 100 µM
